- ASSAY PROCEDURE: Biodistribution in rats
- Format: in vivo, male Sprague-Dawley rats
- CONDITION SET: rat, iv, 60 min p.i., mean ± SD, n = 4

COMPOUND	muscle uptake
Cn1cc(-c2ccncc2)c(-c2ccc(OCc3cc(CCC[18F])c4ccccc4n3)cc2)n1 [[^18F]18c]	0.103 ± 0.030 %ID/g
Cn1cc(-c2ccncc2)c(-c2ccc(OCc3cc(C[18F])c4ccccc4n3)cc2)n1 [[^18F]18b]	0.107 ± 0.032 %ID/g
Cn1cc(-c2ccncc2)c(-c2ccc(OCc3nc4ccccc4cc3OCC[18F])cc2)n1 [[^18F]20a]	0.134 ± 0.009 %ID/g

* * *

- ASSAY PROCEDURE: Biodistribution in rats
- Type: in vivo, male Sprague-Dawley rats
- CONDITION SET: rat, iv, 60 min p.i., mean ± SD, n = 4

COMPOUND	liver uptake (%ID/g)
Cn1cc(-c2ccncc2)c(-c2ccc(OCc3cc(OCC[18F])c4ccccc4n3)cc2)n1 [[^18F]18d]	3.29
Cn1cc(-c2ccncc2)c(-c2ccc(OCc3cc([18F])c4ccccc4n3)cc2)n1 [[^18F]18a]	1.60
Cn1cc(-c2ccncc2)c(-c2ccc(OCc3nc4ccccc4cc3OCC[18F])cc2)n1 [[^18F]20a]	1.80
Cn1cc(-c2ccncc2)c(-c2ccc(OCc3cc(OCCOCCOCC[18F])c4ccccc4n3)cc2)n1 [[^18F]18g]	0.527

* * *

- ASSAY PROCEDURE: Biodistribution in rats
- Format: in vivo, male Sprague-Dawley rats
- CONDITION SET: rat, iv, 60 min p.i., mean ± SD, n = 4
# bone uptake annotations

COMPOUND	bone uptake [%ID/g]
Cn1cc(-c2ccncc2)c(-c2ccc(OCc3cc(OCC[18F])c4ccccc4n3)cc2)n1 [[^18F]18d]	0.142
Cn1cc(-c2ccncc2)c(-c2ccc(OCc3nc4ccccc4cc3OCC[18F])cc2)n1 [[^18F]20a]	0.224
Cn1cc(-c2ccncc2)c(-c2ccc(OCc3cc(C[18F])c4ccccc4n3)cc2)n1 [[^18F]18b]	5.620
Cn1cc(-c2ccncc2)c(-c2ccc(OCc3cc(OCCOCCOCC[18F])c4ccccc4n3)cc2)n1 [[^18F]18g]	0.490
Cn1cc(-c2ccncc2)c(-c2ccc(OCc3cc(COCC[18F])c4ccccc4n3)cc2)n1 [[^18F]18e]	0.337
Cn1cc(-c2ccncc2)c(-c2ccc(OCc3cc([18F])c4ccccc4n3)cc2)n1 [[^18F]18a]	6.300
Cn1cc(-c2ccncc2)c(-c2ccc(OCc3cc(CCC[18F])c4ccccc4n3)cc2)n1 [[^18F]18c]	2.037

* * *

- ASSAY PROCEDURE: Biodistribution in rats
- Type: in vivo, male Sprague-Dawley rats
- CONDITION SET: rat, iv, 30 min p.i., mean ± SD, n = 4
# liver uptake annotations

COMPOUND	liver uptake [%ID/g]
Cn1cc(-c2ccncc2)c(-c2ccc(OCc3cc([18F])c4ccccc4n3)cc2)n1 [[^18F]18a]	3.00
Cn1cc(-c2ccncc2)c(-c2ccc(OCc3cc(C[18F])c4ccccc4n3)cc2)n1 [[^18F]18b]	4.01
Cn1cc(-c2ccncc2)c(-c2ccc(OCc3cc(COCC[18F])c4ccccc4n3)cc2)n1 [[^18F]18e]	0.987
Cn1cc(-c2ccncc2)c(-c2ccc(OCc3cc(CCC[18F])c4ccccc4n3)cc2)n1 [[^18F]18c]	5.67

* * *

- ASSAY PROCEDURE: Biodistribution in rats
- Type: in vivo, male Sprague-Dawley rats
- CONDITION SET: rat, iv, 60 min p.i., mean ± SD, n = 4

COMPOUND	fat uptake [%ID/g]
Cn1cc(-c2ccncc2)c(-c2ccc(OCc3cc(OCC[18F])c4ccccc4n3)cc2)n1 [[^18F]18d]	0.259
Cn1cc(-c2ccncc2)c(-c2ccc(OCc3nc4ccccc4cc3OCC[18F])cc2)n1 [[^18F]20a]	0.124
Cn1cc(-c2ccncc2)c(-c2ccc(OCc3cc(OCCOCCOCC[18F])c4ccccc4n3)cc2)n1 [[^18F]18g]	0.123
Cn1cc(-c2ccncc2)c(-c2ccc(OCc3cc(C[18F])c4ccccc4n3)cc2)n1 [[^18F]18b]	0.222
Cn1cc(-c2ccncc2)c(-c2ccc(OCc3cc([18F])c4ccccc4n3)cc2)n1 [[^18F]18a]	0.477
Cn1cc(-c2ccncc2)c(-c2ccc(OCc3cc(CCC[18F])c4ccccc4n3)cc2)n1 [[^18F]18c]	0.368
Cn1cc(-c2ccncc2)c(-c2ccc(OCc3cc(COCC[18F])c4ccccc4n3)cc2)n1 [[^18F]18e]	0.066

* * *

- ASSAY PROCEDURE: Biodistribution in rats
- Type: in vivo, male Sprague-Dawley rats
- CONDITION SET: rat, iv, 30 min p.i., mean ± SD, n = 4

COMPOUND	liver uptake (%ID/g)
Cn1cc(-c2ccncc2)c(-c2ccc(OCc3cc(OCCOCCOCC[18F])c4ccccc4n3)cc2)n1 [[^18F]18g]	1.53
Cn1cc(-c2ccncc2)c(-c2ccc(OCc3cc(OCC[18F])c4ccccc4n3)cc2)n1 [[^18F]18d]	6.98
Cn1cc(-c2ccncc2)c(-c2ccc(OCc3nc4ccccc4cc3OCC[18F])cc2)n1 [[^18F]20a]	3.17

* * *

- ASSAY PROCEDURE: Biodistribution in rats
- Type: in vivo, male Sprague-Dawley rats
- CONDITION SET: rat, iv, 5 min p.i., mean ± SD, n = 4
# liver uptake annotations
TEST READOUT: liver uptake (%ID/g)

COMPOUND	TEST READOUT	MEASUREMENT UNIT	MEASURED RESULT
Cn1cc(-c2ccncc2)c(-c2ccc(OCc3cc(OCC[18F])c4ccccc4n3)cc2)n1 [[^18F]18d]	liver uptake	%ID/g	6.88
Cn1cc(-c2ccncc2)c(-c2ccc(OCc3cc([18F])c4ccccc4n3)cc2)n1 [[^18F]18a]	liver uptake	%ID/g	6.87
Cn1cc(-c2ccncc2)c(-c2ccc(OCc3cc(OCCOCCOCC[18F])c4ccccc4n3)cc2)n1 [[^18F]18g]	liver uptake	%ID/g	4.74

* * *

- ASSAY PROCEDURE: Biodistribution in rats
- Format: in vivo, male Sprague-Dawley rats
- CONDITION SET: rat, iv, 5 min p.i., mean ± SD, n = 4
# kidney uptake annotations
TEST READOUT: kidney uptake (%ID/g)

COMPOUND	MEASURED RESULT
Cn1cc(-c2ccncc2)c(-c2ccc(OCc3cc(C[18F])c4ccccc4n3)cc2)n1 [[^18F]18b]	1.799
Cn1cc(-c2ccncc2)c(-c2ccc(OCc3cc(OCCOCCOCC[18F])c4ccccc4n3)cc2)n1 [[^18F]18g]	5.969
Cn1cc(-c2ccncc2)c(-c2ccc(OCc3cc(OCC[18F])c4ccccc4n3)cc2)n1 [[^18F]18d]	2.200
Cn1cc(-c2ccncc2)c(-c2ccc(OCc3cc(CCC[18F])c4ccccc4n3)cc2)n1 [[^18F]18c]	2.471
Cn1cc(-c2ccncc2)c(-c2ccc(OCc3nc4ccccc4cc3OCC[18F])cc2)n1 [[^18F]20a]	1.789
Cn1cc(-c2ccncc2)c(-c2ccc(OCc3cc(COCC[18F])c4ccccc4n3)cc2)n1 [[^18F]18e]	0.981
Cn1cc(-c2ccncc2)c(-c2ccc(OCc3cc([18F])c4ccccc4n3)cc2)n1 [[^18F]18a]	1.887

* * *

- ASSAY PROCEDURE: Biodistribution in rats
- Assay type: in vivo, male Sprague-Dawley rats
- CONDITION SET: rat, iv, 5 min p.i., mean ± SD, n = 4
So basically: blood uptake at 0.4 %ID/g or higher? That is satisfied. Lower than 0.4 %ID/g? That is not satisfied.

MOLECULE	CATEGORY
Cn1cc(-c2ccncc2)c(-c2ccc(OCc3cc(CCC[18F])c4ccccc4n3)cc2)n1 [[^18F]18c]	satisfied
Cn1cc(-c2ccncc2)c(-c2ccc(OCc3cc(OCCOCCOCC[18F])c4ccccc4n3)cc2)n1 [[^18F]18g]	satisfied
Cn1cc(-c2ccncc2)c(-c2ccc(OCc3cc(COCC[18F])c4ccccc4n3)cc2)n1 [[^18F]18e]	satisfied
Cn1cc(-c2ccncc2)c(-c2ccc(OCc3cc([18F])c4ccccc4n3)cc2)n1 [[^18F]18a]	not satisfied
Cn1cc(-c2ccncc2)c(-c2ccc(OCc3nc4ccccc4cc3OCC[18F])cc2)n1 [[^18F]20a]	not satisfied
Cn1cc(-c2ccncc2)c(-c2ccc(OCc3cc(OCC[18F])c4ccccc4n3)cc2)n1 [[^18F]18d]	not satisfied
Cn1cc(-c2ccncc2)c(-c2ccc(OCc3cc(C[18F])c4ccccc4n3)cc2)n1 [[^18F]18b]	satisfied

* * *

- ASSAY PROCEDURE: Biodistribution in rats
- Assay type: in vivo, male Sprague-Dawley rats
- CONDITION SET: rat, iv, 30 min p.i., mean ± SD, n = 4
So basically: fat uptake at 0.4 %ID/g or higher? That is True. Lower than 0.4 %ID/g? That is False.

COMPOUND	CATEGORY
Cn1cc(-c2ccncc2)c(-c2ccc(OCc3nc4ccccc4cc3OCC[18F])cc2)n1 [[^18F]20a]	False
Cn1cc(-c2ccncc2)c(-c2ccc(OCc3cc([18F])c4ccccc4n3)cc2)n1 [[^18F]18a]	True
Cn1cc(-c2ccncc2)c(-c2ccc(OCc3cc(OCC[18F])c4ccccc4n3)cc2)n1 [[^18F]18d]	False
Cn1cc(-c2ccncc2)c(-c2ccc(OCc3cc(CCC[18F])c4ccccc4n3)cc2)n1 [[^18F]18c]	True
Cn1cc(-c2ccncc2)c(-c2ccc(OCc3cc(COCC[18F])c4ccccc4n3)cc2)n1 [[^18F]18e]	False
Cn1cc(-c2ccncc2)c(-c2ccc(OCc3cc(C[18F])c4ccccc4n3)cc2)n1 [[^18F]18b]	False
Cn1cc(-c2ccncc2)c(-c2ccc(OCc3cc(OCCOCCOCC[18F])c4ccccc4n3)cc2)n1 [[^18F]18g]	False
